Test: Half life in human liver S9 fraction at 2 uM measured after 30 mins in presence of NADPH by HPLC-MS analysis
Assay type: ADME, subcellular
Reported half-life at 2 µM by item:
Please state the figure in min; there is no need to write the unit.

# input # query: half-life at 2 µM of entry COc1ccc2nc(C)cc(OCc3ccc(Cl)c(Cl)c3)c2c1
# output 30.6

# input # query: half-life at 2 µM of entry COc1ccc2nc(C)cc(OCC(=O)c3cccc(Cl)c3)c2c1
# output 78.2

# input # query: half-life at 2 µM of entry COc1ccc2nc(C)cc(OCc3ccc(C(C)C)cc3)c2c1
# output 10

# input # query: half-life at 2 µM of entry COc1ccc2nc(C)cc(OCC(=O)c3ccccc3)c2c1
# output 87.5

====

System: Mycobacterium tuberculosis H37Rv
Assay: Inhibition of Mycobacterium tuberculosis H37Rv ATCC 27294 QcrB assessed as reduction in bacterial growth by resazurin reduction microplate assay
assay_endpoint: MIC

Observe how each entry below is paired with its result.
COc1ccc2nc(C)cc(OCc3cccc(Cl)c3Cl)c2c1    28.7 µM
COc1ccc2nc(C)cc(OCc3ccc(F)cc3)c2c1    16.8 µM
COc1ccc2nc(C)cc(OCc3ccccc3Cl)c2c1    18.8 µM

# input # query: MIC of entry COc1ccc2nc(C)cc(OCc3ccc(C(F)(F)F)cc3)c2c1
# output 7.2 µM

# input # query: MIC of entry COc1ccc2nc(C)cc(OCc3cccc(Br)c3)c2c1
# output 13.9 µM

# input # query: MIC of entry COc1ccc2nc(C)cc(OCC(=O)c3ccc(CC(C)C)cc3)c2c1
# output 6.9 µM

# input # query: MIC of entry COc1cc(COc2cc(C)nc3ccc(OC)cc23)cc(OC)c1
# output 29.5 µM

# input # query: MIC of entry NNC(=O)c1ccncc1
# output 2.3 µM

# input # query: MIC of entry COc1ccc2nc(C)cc(OCC(=O)c3ccc(C)cc3)c2c1
# output 15.6 µM

# input # query: MIC of entry COc1ccc2nc(C)cc(OCc3ccc([N+](=O)[O-])cc3)c2c1
# output 30.8 µM

# input # query: MIC of entry COc1ccc2nc(C)cc(OCC(=O)c3ccccc3OC)c2c1
# output 29.6 µM

# input # query: MIC of entry COc1ccc2nc(C)cc(OCC(=O)c3ccc(Cl)c(Cl)c3)c2c1
# output 6.6 µM

====

Reported CC50 at 72 h by item:
Assay: Cytotoxicity against human HepG2 cells assessed as reduction in cell viability measured after 72 hrs by MTT assay
Format: cell-based
Please state the figure in µM; there is no need to write the unit.

COc1ccc2nc(C)cc(OCc3ccc(C(C)C)cc3)c2c1    13.1

# input # query: CC50 at 72 h of entry COc1ccc2nc(C)cc(OCc3ccc(Cl)c(Cl)c3)c2c1
# output 14.4

====

Assay: Intrinsic clearance in human liver S9 fraction at 2 uM measured after 30 mins in presence of NADPH by HPLC-MS analysis
Type: ADME, subcellular
Settings: read-out: CLH
assay_endpoint: CLint scaled at 2 µM (mL/min/kg)
Please state the figure in mL/min/kg; there is no need to write the unit.

COc1ccc2nc(C)cc(OCc3ccc(Cl)c(Cl)c3)c2c1    12.6
COc1ccc2nc(C)cc(OCc3ccc(C(C)C)cc3)c2c1    17.4
COc1ccc2nc(C)cc(OCC(=O)c3ccccc3)c2c1    7.1

# input # query: CLint scaled at 2 µM of entry COc1ccc2nc(C)cc(OCC(=O)c3cccc(Cl)c3)c2c1
# output 7.7
